Biological target: BChE (Rattus norvegicus, UniProt Q9JKC1)
Construct: Rat serum was obtained by centrifugation of blood; from tissue; host or cells: rat serum
Sequence (Q9JKC1 24-597): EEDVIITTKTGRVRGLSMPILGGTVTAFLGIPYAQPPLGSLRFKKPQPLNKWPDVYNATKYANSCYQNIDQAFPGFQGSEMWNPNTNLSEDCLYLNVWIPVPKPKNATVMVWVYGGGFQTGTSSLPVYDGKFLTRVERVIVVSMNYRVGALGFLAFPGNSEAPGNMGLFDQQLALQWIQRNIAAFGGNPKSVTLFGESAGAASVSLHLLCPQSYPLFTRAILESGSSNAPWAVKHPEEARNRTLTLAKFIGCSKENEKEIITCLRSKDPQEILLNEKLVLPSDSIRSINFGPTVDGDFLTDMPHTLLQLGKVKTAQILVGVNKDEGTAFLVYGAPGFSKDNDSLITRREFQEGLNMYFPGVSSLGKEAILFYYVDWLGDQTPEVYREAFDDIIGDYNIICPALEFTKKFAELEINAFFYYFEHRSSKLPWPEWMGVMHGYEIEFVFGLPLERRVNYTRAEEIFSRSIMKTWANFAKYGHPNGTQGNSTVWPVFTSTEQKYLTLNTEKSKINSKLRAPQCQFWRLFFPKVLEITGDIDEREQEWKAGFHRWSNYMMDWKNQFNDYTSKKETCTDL
Test: biochemical
Settings: Table III; rat serum, in the presence of BW284c51; drugs 13 assayed as hydrochloride salts
Where a name gives a salt, the structure may show the parent alone.
VALUE KIND: IC50 (µM)

- COMPOUND: "O=c1ccc2c([nH]1)CCC[C@@H]2NCCCCCCCCCCCCCCN[C@H]1CCCc2[nH]c(=O)ccc21 [(S,S)-(−)-13k]"
  RESULT: 59.5
- COMPOUND: "O=c1ccc2c([nH]1)CCC[C@@H]2NCCCCCCCCCCCN[C@H]1CCCc2[nH]c(=O)ccc21 [(S,S)-(−)-13h]"
  RESULT: 1.16
- COMPOUND: "O=c1ccc2c([nH]1)CCC[C@@H]2NCCCCCCCCCCCCCN[C@H]1CCCc2[nH]c(=O)ccc21 [(S,S)-(−)-13j]"
  RESULT: 16.7
- COMPOUND: "O=c1ccc2c([nH]1)CCC[C@@H]2NCCCCCCCCCCCCN[C@H]1CCCc2[nH]c(=O)ccc21 [(S,S)-(−)-13i, bis-Hydrochloride Salt]"
  RESULT: 9.6
- COMPOUND: "O=c1ccc2c([nH]1)CCC[C@H]2NCCCCCCCCCCCCN[C@@H]1CCCc2[nH]c(=O)ccc21 [(R,R)-(+)-13i]"
  RESULT: 297
- COMPOUND: "O=c1ccc2c([nH]1)CCC[C@@H]2NCCCCCCCCCCN[C@H]1CCCc2[nH]c(=O)ccc21 [(S,S)-(−)-13g]"
  RESULT: 1.82

====

Target: BChE (Rattus norvegicus)
Construct: Rat serum was obtained by centrifugation of blood; from tissue; host or cells: rat serum
Test: biochemical
Conditions: Table II; rat serum, in the presence of BW284c51 as a specific AChE inhibitor; drugs assayed as salts
pIC50: −log10 of the molar value. Counter-ions that a name gives are not always drawn.
In this section, each of the molecules is paired with its reported pIC50.

- MOLECULE: "O=c1ccc2c([nH]1)CCCC2NCCCCCCNC1CCCc2[nH]c(=O)ccc21 (racemic) [rac-lmeso-13c]"
  ASSAYED TARGET: "BChE (Rattus norvegicus)"
  pIC50: 4.01
- MOLECULE: "O=c1ccc2c([nH]1)CCCC2NCCCCCCCCNC1CCCc2[nH]c(=O)ccc21 (racemic) [rac-lmeso-13e]"
  ASSAYED TARGET: "BChE (Rattus norvegicus)"
  pIC50: 4.99
- MOLECULE: "O=c1ccc2c([nH]1)CCCC2NCCCCCCCCCCNC1CCCc2[nH]c(=O)ccc21 (racemic) [rac-lmeso-13g]"
  ASSAYED TARGET: "BChE (Rattus norvegicus)"
  pIC50: 5.26
- MOLECULE: "CC1(C)Cc2[nH]c(=O)ccc2C(NCCCCCCCNC2CC(C)(C)Cc3[nH]c(=O)ccc32)C1 (racemic) [rac-lmeso-14d]"
  ASSAYED TARGET: "BChE (Rattus norvegicus)"
  pIC50: 3.72
- MOLECULE: "O=c1ccc2c([nH]1)CCCC2NCCCCCCCNC1CCCc2[nH]c(=O)ccc21 (racemic) [rac-lmeso-13d, bis-Hydrochloride Salt]"
  ASSAYED TARGET: "BChE (Rattus norvegicus)"
  pIC50: 4.46
- MOLECULE: "O=c1ccc2c([nH]1)CCCC2NCCCCCCCCCCCCNC1CCCc2[nH]c(=O)ccc21 (racemic) [rac-lmeso-13i]"
  ASSAYED TARGET: "BChE (Rattus norvegicus)"
  pIC50: 4.61
- MOLECULE: "COc1ccc2c(n1)CCCC2NCCCCCCCCCCCCNC1CCCc2nc(OC)ccc21 (racemic) [rac-lmeso-17i]"
  ASSAYED TARGET: "BChE (Rattus norvegicus)"
  pIC50: 4.10
- MOLECULE: "CC1(C)Cc2[nH]c(=O)ccc2C(NCCCCCCCCCNC2CC(C)(C)Cc3[nH]c(=O)ccc32)C1 (racemic) [rac-lmeso-14f]"
  ASSAYED TARGET: "BChE (Rattus norvegicus)"
  pIC50: 3.98
- MOLECULE: "O=c1ccc2c([nH]1)CCCC2NCCCCNC1CCCc2[nH]c(=O)ccc21 (racemic) [rac-lmeso-13a]"
  ASSAYED TARGET: "BChE (Rattus norvegicus)"
  pIC50: 3.94
- MOLECULE: "COc1ccc2c(n1)CCCC2NCCCCCCCCCCNC1CCCc2nc(OC)ccc21 (racemic) [rac-lmeso-17g]"
  ASSAYED TARGET: "BChE (Rattus norvegicus)"
  pIC50: 4.46

====

Molecular target: AChE (Rattus norvegicus)
Construct: Frontal cortex (brain dissected on ice) was homogenized in sodium phosphate buffer; from tissue; host or cells: rat frontal cortex homogenate
Sequence (P37136 32-614): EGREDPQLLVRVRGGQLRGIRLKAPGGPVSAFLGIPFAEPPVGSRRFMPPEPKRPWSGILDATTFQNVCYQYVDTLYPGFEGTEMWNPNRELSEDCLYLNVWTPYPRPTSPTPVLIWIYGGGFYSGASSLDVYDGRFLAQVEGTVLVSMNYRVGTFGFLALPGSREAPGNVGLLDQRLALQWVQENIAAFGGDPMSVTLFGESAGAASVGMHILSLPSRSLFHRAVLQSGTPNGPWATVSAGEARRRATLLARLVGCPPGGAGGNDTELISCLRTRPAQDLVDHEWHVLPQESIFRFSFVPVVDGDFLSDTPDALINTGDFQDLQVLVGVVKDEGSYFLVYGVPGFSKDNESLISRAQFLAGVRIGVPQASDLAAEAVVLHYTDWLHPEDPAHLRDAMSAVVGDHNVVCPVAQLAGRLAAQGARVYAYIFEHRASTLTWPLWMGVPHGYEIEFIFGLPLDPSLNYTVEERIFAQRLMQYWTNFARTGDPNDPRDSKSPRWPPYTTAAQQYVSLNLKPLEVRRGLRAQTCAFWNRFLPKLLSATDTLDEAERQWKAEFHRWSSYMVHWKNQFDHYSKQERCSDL
Assay: biochemical
Conditions: Table II; IC50(BChE)/IC50(AChE)
Structures can show the parent of a compound that is named as a salt.
Simple rule here: Selectivity for AChE less than 20 is Fulfilled, otherwise Not fulfilled.

- MOLECULE: "COc1ccc2c(n1)CCCC2NCCCCCCCCCCCCNC1CCCc2nc(OC)ccc21 (racemic) [rac-lmeso-17i]"
  ASSAYED TARGET: "AChE (Rattus norvegicus)"
  LABEL CLASS: "Fulfilled"
- MOLECULE: "O=c1ccc2c([nH]1)CCCC2NCCCCCCNC1CCCc2[nH]c(=O)ccc21 (racemic) [rac-lmeso-13c]"
  ASSAYED TARGET: "AChE (Rattus norvegicus)"
  LABEL CLASS: "Not fulfilled"
- MOLECULE: "O=c1ccc2c([nH]1)CCCC2NCCCCCNC1CCCc2[nH]c(=O)ccc21 (racemic) [rac-lmeso-13b]"
  ASSAYED TARGET: "AChE (Rattus norvegicus)"
  LABEL CLASS: "Fulfilled"
- MOLECULE: "O=c1ccc2c([nH]1)CCCC2NCCCCCCCCNC1CCCc2[nH]c(=O)ccc21 (racemic) [rac-lmeso-13e]"
  ASSAYED TARGET: "AChE (Rattus norvegicus)"
  LABEL CLASS: "Fulfilled"
- MOLECULE: "COc1ccc2c(n1)CCCC2NCCCCCCCCCCNC1CCCc2nc(OC)ccc21 (racemic) [rac-lmeso-17g]"
  ASSAYED TARGET: "AChE (Rattus norvegicus)"
  LABEL CLASS: "Fulfilled"
- MOLECULE: "CC1(C)Cc2[nH]c(=O)ccc2C(NCCCCCCCNC2CC(C)(C)Cc3[nH]c(=O)ccc32)C1 (racemic) [rac-lmeso-14d]"
  ASSAYED TARGET: "AChE (Rattus norvegicus)"
  LABEL CLASS: "Fulfilled"
- MOLECULE: "O=c1ccc2c([nH]1)CCCC2NCCCCCCCNC1CCCc2[nH]c(=O)ccc21 (racemic) [rac-lmeso-13d, bis-Hydrochloride Salt]"
  ASSAYED TARGET: "AChE (Rattus norvegicus)"
  LABEL CLASS: "Not fulfilled"
- MOLECULE: "CC1(C)Cc2[nH]c(=O)ccc2C(NCCCCCCCCCCCCNC2CC(C)(C)Cc3[nH]c(=O)ccc32)C1 (racemic) [rac-lmeso-14i]"
  ASSAYED TARGET: "AChE (Rattus norvegicus)"
  LABEL CLASS: "Fulfilled"
- MOLECULE: "O=c1ccc2c([nH]1)CCCC2NCCCCNC1CCCc2[nH]c(=O)ccc21 (racemic) [rac-lmeso-13a]"
  ASSAYED TARGET: "AChE (Rattus norvegicus)"
  LABEL CLASS: "Fulfilled"
- MOLECULE: "CC1(C)Cc2[nH]c(=O)ccc2C(NCCCCCCCCCCNC2CC(C)(C)Cc3[nH]c(=O)ccc32)C1 (racemic) [rac-lmeso-14g]"
  ASSAYED TARGET: "AChE (Rattus norvegicus)"
  LABEL CLASS: "Fulfilled"
- MOLECULE: "CC1(C)Cc2[nH]c(=O)ccc2C(NCCCCCCCCCNC2CC(C)(C)Cc3[nH]c(=O)ccc32)C1 (racemic) [rac-lmeso-14f]"
  ASSAYED TARGET: "AChE (Rattus norvegicus)"
  LABEL CLASS: "Fulfilled"
- MOLECULE: "O=c1ccc2c([nH]1)CCCC2NCCCCCCCCCNC1CCCc2[nH]c(=O)ccc21 (racemic) [rac-lmeso-13f]"
  ASSAYED TARGET: "AChE (Rattus norvegicus)"
  LABEL CLASS: "Not fulfilled"
- MOLECULE: "CC1(NCCCCCCCCCCNC2(C)CCCc3[nH]c(=O)ccc32)CCCc2[nH]c(=O)ccc21 (racemic) [rac-lmeso-19g]"
  ASSAYED TARGET: "AChE (Rattus norvegicus)"
  LABEL CLASS: "Fulfilled"
- MOLECULE: "Cn1c2c(ccc1=O)C(NCCCCCCCCCCNC1CCCc3c1ccc(=O)n3C)CCC2 (racemic) [rac-lmeso-15g]"
  ASSAYED TARGET: "AChE (Rattus norvegicus)"
  LABEL CLASS: "Not fulfilled"

Values compiled from patent US6472408B1.
